Each record here notes measured pKd.
# Target System: T1, dimeric hActRIIB (human, UniProt Q13705 19-134)
# T1 construct: also called ActRIIB DIMER; ActRIIB dimer
# T1 sequence (Q13705 19-134): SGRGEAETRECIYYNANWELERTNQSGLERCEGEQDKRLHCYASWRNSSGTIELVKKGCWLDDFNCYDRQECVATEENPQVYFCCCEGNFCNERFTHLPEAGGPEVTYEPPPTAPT
# Experiment: SPR (Biacore), 37 C, antibody captured on anti-hFc IgG chip, dimeric ActRIIB injected, KD = kd/ka
# Method: Kinetic characterization of J01, K01, L01, M01, N01, and P01 antibodies binding to monomeric and dimeric hActRIIB and hActRIIA was performed using standard BIACORE®-based analysis at 37° C. In brief, antibodies were captured on anti-hFclgG Biacore chips and different concentrations of dimeric and monomeric ActRIIB or ActRIIA were injected in duplicates over the captured antibody and control surface. […] The equilibrium binding constant KD was determined by the ratio of binding rate constants kd/kₐ
Would you please state pKd, meaning minus log10 of the concentration in mol/L, as a bare number?

Answer with the recorded pKd for the binder listed here: M01 (antibody, V domains shown, Optimized human IgG; It was captured through its Fc on an anti-hFc IgG chip; also called M01 antibody; mAB M01) VH: EVQLLESGGGLVQPGGSLRLSCAASGFTFGSYGMTWVRQAPGKGLEWVSVISGSGGGTYYADSVKGRFTISRDNSKNTLYLQMNSLRAEDTAVYYCAKGPRVVGMDVWGQGTTVTVSS VL: DIQMTQSPSSVSASVGDRVTITCRASQGISSWLAWYQQKPGKAPKLLIYAASSLQSGVPSRFSGSGSGTDYTLTISSLQPEDFATYYCQQVFSYPLTFGGGTKVEIK
9.97

State its pKd: L01 (antibody, human IgG1, kappa, V domains shown, Naive human IgG; also called L01 antibody; mAB L01) VH: QLQLQESGPGLVKPSETLSLTCTVSGGSISSSSYYWGWIRQPPGKGLEWIGSISYSGSTYYNPSLKSRVTISVDTSKNQFSLKLSSVTAADTAVYYCARDSLRYGMDVWGQGTTVTVSS VL: EIVMTQSPATLSVSPGERATLSCRASQSVSSNLAWYQQKPGQAPRLLIYGASTRATGIPARFSGSGSGTEFTLTISSLQSEDFAVYYCQVYNVWPRTFGGGTKVEIKR
8.76

Return reported pKd. Input binder: N01 (antibody, human IgG1, kappa, V domains shown, also called N01 antibody; mAB N01) VH: QLQLQESGPGLVKPSETLSLTCTVSGGSISSSSYYWGWIRQPPGKGLEWIGSISYSGSTYYNPSLKSRVTISVDTSKNQFSLKLSSVTAADTAVYYCARDSLRYGMDVWGQGTTVTVSS VL: DIQMTQSPSTLSASVGDRVTITCRASQSIGSWLAWYQQKPGKAPKLLIYKASSLESGVPSRFSGSGSGTEFTLTISSLQPDDFATYYCQVYGSYSPRTFGGGTKVEIKR
8.74

Find the measured pKd of P01 (antibody, V domains shown, Naive human IgG; also called P01 antibody; mAB P01) VH: EVQLLESGGGLVQPGGSLRLSCAASGFTFSSYAMSWVRQAPGKGLEWVSAISGSGGSTSYADSVKGRFTISRDNSKNTLYLQMNSLRAEDTAVYYCARLPQYSRPFDYWGQGTLVTVSS VL: DIQMTQSPSSVSASVGDRVTITCRASQGISSWLAWYQQKPGKAPKLLIYAASSLQSGVPSRFSGSGSGTDFTLTISSLQPEDFATYYCQQGHSFPLTFGGGTKVEIK and report it.
7.43

Fill in reported pKd for this entry: J01 (antibody, V domains shown, also called J01 antibody; mAB J01) VH: QVQLVQSGAEVKKPGASVKVSCKASGYTFTSYRMHWVRQAPGQGLEWMGFIVPSGGSTSYAQKFQGRVTMTRDTSTSTVYMELSSLRSEDTAVYYCARVSRYAPEPMDVWGQGTTVTVSS VL: DIQMTQSPSSVSASVGDRVTITCRASQGISRWLAWYQQKPGKAPKLLIYAASSLQSGVPSRFSGSGSGTDFTLTISSLQPEDFATYYCQQAFSHPWTFGGGTKVEIK
10.43
